# Test system: SF-268
# test name: NCI tumour cell line growth inhibition, 48 h
The source made the active and inactive calls. Rule as the data show it: active = GI50 up to about 1.1 µM and inactive = higher.
// classify into True for active, False for inactive

Below, 3 compounds whose answers are already recorded.
COc1ccccc1NC(=O)C1=C(C)NC(C)=C(C(=O)Nc2ccccc2OC)C1c1ccccc1Cl    False
COc1cc(C(=O)c2cocc2C(=O)c2ccc3c(c2)OCO3)cc(OC)c1OC    True
CCCCCCCCCCOC1C(C(O)CNCCCN(C)C)OC2OC3(CCCCC3)OC21 (configuration not stated)    False

Which result was noted for this compound in the test: `O=C1Nc2cccc3ncn(c23)C2=C1CCCC2` False

Would you mind doing `C/C(=N\NC(N)=S)c1ccc(/C(C)=N/NC(N)=S)cc1` as well? False

Would you mind doing `C[C@]12CC/C(=N\O)C=C1CC[C@@H]1[C@@H]2CC[C@]2(C)C(=N/O)/C(=C/c3ccncc3)C[C@@H]12` as well? False

Would you mind doing `Nc1nc(Cl)cc(NCCC2(CO)CCC2)n1` as well? False

Would you mind doing CC(C)(Cl)C(Br)CCC(C)(Cl)C(Br)CBr (configuration not stated) as well? False

Would you mind doing `Nc1nc(-c2ccc(Cl)c([N+](=O)[O-])c2)cs1` as well? False

Would you mind doing `CC1=CCC[C@]2(C)C1=CC(=O)O[C@H]2c1ccoc1` as well? False

---

# Tested on: LOX IMVI
# test name: NCI tumour cell line growth inhibition, 48 h
Activity calls are given as the source filed them. Cut-off read from the data, not from the text of the source: active = GI50 up to about 1.1 µM and inactive = higher.
assay readout: GI50

Worked cases, answers included:
O=C(O)c1ccccc1C1c2ccccc2Oc2ccccc21    98.4 µM (inactive)
COc1cc2cc(C(=O)N3CC(CCl)c4ccc([N+](C)(C)Cc5ccccc5[N+](=O)[O-])cc43)[nH]c2c(OC)c1OC (centres undefined)    2.31 µM (inactive)
CC(C)(C)OC(=O)NCCCCC(NC(=O)OCc1ccccc1)C(N)=O (centres undefined)    > 100 µM (inactive)
O=[N+]([O-])c1cc(Cc2cc([N+](=O)[O-])c3cccnc3c2O)c(O)c2ncccc12    3.91 µM (inactive)

Fill in the recorded GI50 for this compound, with LOX IMVI as test system: CCCCCC(/C=N/NC(N)=S)C(O)(C(F)(F)F)C(F)(F)F (centres undefined) > 10 µM (inactive)

---

# Test system: CCRF-CEM
# test name: NCI tumour cell line growth inhibition, 48 h
Activity calls are given as the source filed them. Rule as the data show it: active = GI50 up to about 1.1 µM and inactive = higher.
// classify into true (active), false (inactive)

Below, 8 compounds whose answers are already recorded.
CC(=O)OCC1OC(n2ncc(=O)[nH]c2=O)C(OC(C)=O)C1OC(C)=O (stereo not drawn)    true
COC(=O)c1cc2c(n1S(=O)(=O)c1ccc(C)cc1)C(=O)C(=O)c1[nH]cc(C(=O)OCc3ccccc3)c1-2    true
CC(=O)c1ccc2c(c1)CC1(C2)Cc2ccccc2C1=O (stereo not drawn)    false
O=C1/C(=C/c2ccc(O)cc2)CCc2ccc([N+](=O)[O-])cc21    true
COc1ccccc1OCC(COC(=O)Nc1ccccc1)OC(=O)Nc1ccccc1 (stereo not drawn)    false
COC(=O)C1=C(C(=O)OC)C(OO)(c2ccccc2)OC1=O (stereo not drawn)    false
O=Cc1[nH]c2ccccc2c1Br    false
O=C(O)c1ccccc1C1c2ccccc2Oc2ccccc21    false

Which result was noted for this compound in the test: CCCCCC/C=C1\CCC(CN(C)C)C1=O (stereo not drawn) false

Would you mind doing `COc1ccccc1NC(=O)C1=C(C)NC(C)=C(C(=O)Nc2ccccc2OC)C1c1cccc2c1OCO2` as well? false

---

# Test system: OVCAR-3
# test name: NCI tumour cell line growth inhibition, 48 h
The source made the active and inactive calls. Cut-off read from the data, not from the text of the source: active = GI50 up to about 1.1 µM and inactive = higher.
// classify into active, inactive

Below, 6 compounds whose answers are already recorded.
CCOC(=O)/C(C#N)=C(/NNc1ccccc1)c1ccncc1C(=O)O    inactive
Nc1nn2c(C(Br)Br)cc(C(Br)Br)nc2c1[N+](=O)[O-]    active
CCOC(=O)C(NC(=O)CC)(Nc1ccc(S(=O)(=O)Nc2ccc(OC)nn2)cc1)C(F)(F)F (stereo unspecified)    inactive
CC1=Nc2c(O)nc(S)nc2NC(c2ccc(Cl)c(Cl)c2)C1 (stereo unspecified)    inactive
COC(=O)[C@@H]1C[C@@H]2c3ccccc3N(S(=O)(=O)c3ccccc3)[C@@H]2N1C(=O)OC    inactive
CC(=O)Nc1ccc(SC#N)c2c(NC(C)=O)cccc12    inactive

Which result was noted for this compound in the test: `CCOC(=O)C1=C(C)N(NC(=O)Nc2ccccc2)C(=O)C1=P(c1ccccc1)(c1ccccc1)c1ccccc1` inactive

Would you mind doing `Nc1c(/C=C/c2cc3cc(C4=NCCN4)ccc3o2)[nH]c2cc(C3=NCCN3)ccc12` as well? inactive

Would you mind doing CCC1(CN(C)C)CC/C(=C\c2ccc(OC)cc2)C1=O (stereo unspecified) as well? inactive

Would you mind doing `COC(=O)/C=C/CC(=O)NS(C)(=O)=O` as well? inactive

Would you mind doing `NCCCN(CCCN)CCN(CCN(CCCN)CCCN)CCN(CCCN)CCCN` as well? inactive

---

# System: SNB-75
# test name: NCI tumour cell line growth inhibition, 48 h
The source made the active and inactive calls. Rule as the data show it: active = GI50 up to about 1.1 µM and inactive = higher.
assay readout: GI50

COc1cccc2c1C(=O)c1c(O)c3c(c(O)c1C2=O)C[C@@](O)(C(=O)CN1CCOCC1)C[C@@H]3OC1CC(N)C(O)C(C)O1 (some centres not stated)    5.07 µM (inactive)
Cc1ccc(S(=O)(=O)O/N=C2\CCC\C2=C/c2ccccc2)cc1    20.2 µM (inactive)
COc1ccc(/N=N/c2ccc3oc(=O)c(C(=O)Nc4ccc(OC)cc4)cc3c2)cc1    16.2 µM (inactive)
Cc1ccccc1C(=O)c1cc(O)ccc1O    76.2 µM (inactive)
O/N=C1\C(=C\c2ccc3c(c2)OCCO3)CCCC1C(NO)c1ccc2c(c1)OCCO2 (configuration not stated)    28.7 µM (inactive)

Fill in the recorded GI50 for this molecule, with SNB-75 as test system: CC(=O)OC(C)c1cc2c(s1)C(=O)c1ccsc1C2=O (configuration not stated) 0.148 µM (active)

---

# Test system: U-251
# test name: NCI tumour cell line growth inhibition, 48 h
Active and inactive are the calls of the source. Rule as the data show it: active = GI50 up to about 1.1 µM and inactive = higher.
assay readout: GI50

CCOC(=O)N(c1ccccc1)N(CC)C(=O)/C(C)=N/Nc1ccc([N+](=O)[O-])cc1    15 µM (inactive)
O=[N+]([O-])c1ccc2c(/N=N/c3ccc4ccccc4c3O)c(O)cc(S(=O)(=O)O)c2c1    7.41 µM (inactive)
Cc1cc(S(=O)(=O)Nc2nc3cc(-c4ccc(Cl)cc4)sc3c(=O)n2N)c(S)cc1Cl    43.4 µM (inactive)
Oc1ccc(Br)cc1/C=N/c1ccc(/N=C/c2cc(Br)ccc2O)cc1    > 100 µM (inactive)
CCOC(=O)c1c(N2CCCC2)[nH]c(=O)c(C(c2ccc(N(C)C)cc2)c2c(O)c(C(=O)OCC)c(N3CCCC3)[nH]c2=O)c1O    > 100 µM (inactive)
Cc1cc(NS(=O)(=O)c2ccc(NC(=O)c3ccc4nc5ccccc5c(Nc5ccc(S(N)(=O)=O)cc5)c4c3)cc2)no1    25.5 µM (inactive)
CC[P+]1(CC)CCCC1    > 100 µM (inactive)
Cc1ccc(N2C(=O)C=C(C3=C(O)C(=O)N(c4ccc(C)cc4)C3=O)C2=O)cc1    > 100 µM (inactive)
Cn1c(=O)n2n(c1=O)C([S+]([O-])c1ccccc1)C2 (stereo unspecified)    > 100 µM (inactive)
Cc1ccc(S(=O)(=O)O/N=C2\CCC\C2=C/c2ccccc2)cc1    31.6 µM (inactive)

Endpoint output: GI50 of `COc1cccc(-c2nc(O)c3ccccc3n2)c1OC` . Value? > 100 µM (inactive)

Would you mind doing `CC(=N/NC(=S)N1CCCCC1)/C(C)=N\NC(=S)N1CCCCC1` as well? 1.97 µM (inactive)

Would you mind doing `c1ccc(-c2csc3ncn4cnnc4c23)cc1` as well? > 100 µM (inactive)

Would you mind doing CC1OC(OC2C(OC(=O)[C@]34CCC(C)(C)C[C@H]3C3=CC[C@@H]5[C@@]6(C)CC[C@H](OC7OC(C(=O)O)C(O)C(O)C7O)C(C)(C)[C@@H]6CC[C@@]5(C)[C@]3(C)C[C@H]4O)OCC(O)C2O)C(O)C(O)C1OC1OCC(OC2OCC(O)C(O)C2O)C(O)C1O (stereo partly specified) as well? 7.85 µM (inactive)

Would you mind doing `Cn1c(SCc2ccc(F)cc2)nnc1C12CC3CC(CC(C3)C1)C2` as well? 35.2 µM (inactive)

Would you mind doing `CC(=O)Nc1ccc(Nc2cc(=O)n(C)c(=O)[nH]2)cc1` as well? > 100 µM (inactive)

---

# Test system: UACC-62
# test name: NCI tumour cell line growth inhibition, 48 h
Calls of active or inactive are those of the source. Cut-off read from the data, not from the text of the source: active = GI50 up to about 1.1 µM and inactive = higher.
// classify into y for active, n for inactive

Below, 4 compounds whose answers are already recorded.
O=C1C=CC(=O)C12CCc1ccccc12    n
CC1CCCC(C(O)CC2CC(=O)NC(=O)C2)C1O (centres undefined)    n
NC(=O)C(=Cc1ccc(C(O)P(=O)(O)O)cc1)C(N)=O (centres undefined)    n
COC(=O)C1C(=O)CC(C)(O)C(C(=O)OC)C1c1ccc(N(C)C)cc1 (centres undefined)    n

Which result was noted for this compound in the test: N#CC(C(=O)CCCC(=O)Nc1ccccc1[N+](=O)[O-])c1c(Cl)cccc1Cl (centres undefined) n

Would you mind doing `CC[P+]1(CC)CCCC1` as well? n

Would you mind doing `CN(C)c1ccc2cc3ccc(N(C)C)cc3nc2c1` as well? n

Would you mind doing `CSc1nc(NC2CCCC2)c2cc[nH]c2n1` as well? n

Would you mind doing `C/C=C/C(=O)[C@@H](O)C(C)C` as well? n
